# Target of assay: PTK2 (Homo sapiens)
# Construct: purchased Invitrogen PV3832
# Sequence (Q05397 whole entry): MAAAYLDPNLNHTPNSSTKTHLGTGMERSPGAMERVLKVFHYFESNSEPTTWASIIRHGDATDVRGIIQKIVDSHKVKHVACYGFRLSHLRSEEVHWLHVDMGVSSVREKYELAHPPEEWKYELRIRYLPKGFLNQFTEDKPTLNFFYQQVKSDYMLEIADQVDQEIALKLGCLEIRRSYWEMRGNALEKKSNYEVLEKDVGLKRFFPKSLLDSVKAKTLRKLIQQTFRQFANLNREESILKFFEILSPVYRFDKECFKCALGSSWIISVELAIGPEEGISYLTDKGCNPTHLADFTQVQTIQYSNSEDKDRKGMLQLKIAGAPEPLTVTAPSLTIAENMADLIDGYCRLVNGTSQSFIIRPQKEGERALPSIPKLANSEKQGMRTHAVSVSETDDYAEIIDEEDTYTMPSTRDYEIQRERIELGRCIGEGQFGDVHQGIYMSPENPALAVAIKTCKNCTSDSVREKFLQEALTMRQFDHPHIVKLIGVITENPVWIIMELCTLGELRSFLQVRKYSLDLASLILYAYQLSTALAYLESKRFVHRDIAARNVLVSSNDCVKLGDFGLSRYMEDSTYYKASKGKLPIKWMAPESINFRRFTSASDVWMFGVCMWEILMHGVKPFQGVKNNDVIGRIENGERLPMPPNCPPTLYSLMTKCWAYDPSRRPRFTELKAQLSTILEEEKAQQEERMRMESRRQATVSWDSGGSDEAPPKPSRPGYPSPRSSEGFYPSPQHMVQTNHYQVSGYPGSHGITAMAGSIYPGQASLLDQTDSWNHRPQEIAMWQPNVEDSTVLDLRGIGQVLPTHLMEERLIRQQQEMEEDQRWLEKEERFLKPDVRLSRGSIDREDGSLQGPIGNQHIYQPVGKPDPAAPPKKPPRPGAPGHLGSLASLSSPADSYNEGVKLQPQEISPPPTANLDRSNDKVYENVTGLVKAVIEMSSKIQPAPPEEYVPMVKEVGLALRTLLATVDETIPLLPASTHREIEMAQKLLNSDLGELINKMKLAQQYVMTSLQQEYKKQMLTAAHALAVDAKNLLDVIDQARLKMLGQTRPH
# Measurement protocol: PTK2 Enzyme Test (DELFIA assay, poly-Glu-Tyr substrate)
# Type: biochemical
# Recorded conditions: active PTK2 enzyme, 50 μM ATP in ATP Mix, 1 h pre-incubation
pIC50: −log10 of the molar value.
Assay endpoint: pIC50

INSERT INTO results (structure_smiles_string, assay_endpoint, reported_result) VALUES
  ('COc1cc(N2CCN(C3CCN(C)CC3)CC2)ccc1Nc1ncc(C(F)(F)F)c(NCc2ccc(C)cc2N(C)S(C)(=O)=O)n1', 'pIC50', 8.70),
  ('COc1cc(C(=O)NCCn2ccnc2)ccc1Nc1ncc(C(F)(F)F)c(NCc2ccc(C)cc2N(C)S(C)(=O)=O)n1', 'pIC50', 8.70),
  ('COc1cc(C(=O)N[C@@H]2CN3CCC2CC3)ccc1Nc1ncc(C(F)(F)F)c(NCc2ccc(C)cc2N(C)S(C)(=O)=O)n1', 'pIC50', 8.52),
  ('COc1cc(C(=O)NC[C@@H](C)N2CCCC2)ccc1Nc1ncc(C(F)(F)F)c(NCc2ccc(C)cc2N(C)S(C)(=O)=O)n1', 'pIC50', 8.52),
  ('COc1cc(C(=O)N[C@@H]2CCN(C)C[C@H]2F)c(F)cc1Nc1ncc(C(F)(F)F)c(NCc2ccc(C)cc2N(C)S(C)(=O)=O)n1', 'pIC50', 8.52),
  ('COc1cc(CNC2CCN(C)CC2)ccc1Nc1ncc(C(F)(F)F)c(NCc2ccc(C)cc2N(C)S(C)(=O)=O)n1', 'pIC50', 8.52);
